B1: Far upstream element-binding protein 3, residues 75 to 150; numbered along this chain, Q96I24 (parent)
chain: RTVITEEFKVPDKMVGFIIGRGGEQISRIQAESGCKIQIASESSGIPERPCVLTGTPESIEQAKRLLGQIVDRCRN

- Variants of: B1
- Assay method text: abundance fitness (aPCA) (normalised: wild type 0, dead -1); higher = more abundant; growth selection in yeast, the domain comes from the species named
- Test context: Homo sapiens
Recorded metric: abundance fitness
# print the numeric value only

Sample records with abundance fitness:
V10K	-0.794
D12E	-0.053
G23M	-0.078
E42V	-0.041
S44E	-0.009
E7T	-0.002
Q38E	-0.013
I19S	-0.045

// query Name the reported abundance fitness value associated with the variant Q38Y
// result -0.172

// query Given the variant Q69H , what is its reported abundance fitness?
// result 0.021

Data origin: the Human Domainome abundance scans (Beltran et al. 2025)
